Target: CDK6-CYCLIND3 (Homo sapiens)
Construct: purchased Carna
Sequence (Q00534 whole entry): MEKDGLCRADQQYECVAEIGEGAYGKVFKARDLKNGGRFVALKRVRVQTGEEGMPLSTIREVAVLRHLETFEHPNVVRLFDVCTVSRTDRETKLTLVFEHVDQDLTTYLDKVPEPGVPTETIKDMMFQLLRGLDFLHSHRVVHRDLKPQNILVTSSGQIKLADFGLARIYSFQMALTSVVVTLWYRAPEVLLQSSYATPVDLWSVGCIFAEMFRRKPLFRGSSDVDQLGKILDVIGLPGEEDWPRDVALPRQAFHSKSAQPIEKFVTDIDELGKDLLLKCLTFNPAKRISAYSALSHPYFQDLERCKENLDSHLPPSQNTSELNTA
Sequence (P30281 whole entry partner): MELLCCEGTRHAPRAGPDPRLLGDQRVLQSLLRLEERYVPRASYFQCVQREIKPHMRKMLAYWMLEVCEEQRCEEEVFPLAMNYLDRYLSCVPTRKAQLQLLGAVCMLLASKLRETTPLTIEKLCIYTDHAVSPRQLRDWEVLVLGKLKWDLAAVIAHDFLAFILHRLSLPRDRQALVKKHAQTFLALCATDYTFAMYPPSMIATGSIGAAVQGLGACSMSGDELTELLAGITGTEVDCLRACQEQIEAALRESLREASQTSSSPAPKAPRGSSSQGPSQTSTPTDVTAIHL
Assay: Microfluidic LabChip kinase inhibition assay, CDK6-CyclinD3
Type: biochemical
Conditions: Table 3b; 300 μM ATP; read-out: CDK6 CyclinD3 IC50
quantity_name: IC50 (nM)

Below: 5 molecules and their reported IC50.
molecule	tested_system	IC50 / nM
CN1CCN(c2ccc(Nc3ncc4c(n3)N(C3CCCCC3)C3(CCNC3=O)C4)cc2)CC1 (centres unmarked)	CDK6-CYCLIND3 (Homo sapiens)	103
O=C1NCCC12Cc1cnc(Nc3ccc(N4CCNCC4)c(F)c3)nc1N2C1CCCC1 (single isomer, unassigned) [Compound C204]	CDK6-CYCLIND3 (Homo sapiens)	11800
CN1CCN(c2ccc(Nc3ncc4c(n3)N(C3CCCCC3)C3(CCNC3=O)C4)cn2)CC1 (centres unmarked)	CDK6-CYCLIND3 (Homo sapiens)	115
CN1CCN(c2ccc(Nc3ncc4c(n3)N(C3CCCC3)C3(CCNC3=O)C4)cc2F)CC1 (single isomer, unassigned) [Compound C205]	CDK6-CYCLIND3 (Homo sapiens)	179
CN1CCN(c2ccc(Nc3ncc4c(n3)N(C3CCCC3)C3(CCNC3=O)C4)cc2F)CC1 (single isomer, unassigned) [Compound C206]	CDK6-CYCLIND3 (Homo sapiens)	15800

1 = O=C1NCCC12Cc1cnc(Nc3ccc(N4CCNCC4)c(F)c3)nc1N2C1CCCC1 (single isomer, unassigned) [Compound C203]
2 = CN1CCN(c2ccc(Nc3ncc4c(n3)N(C3CCCCC3)C3(CCNC3=O)C4)cc2F)CC1 (centres unmarked)
3 = CN1CCN(c2ccc(Nc3ncc4c(n3)N(C3CCCCC3)C3(CCNC3=O)C4)nc2)CC1 (centres unmarked)
Data request: Rank descending by IC50. # the answer lists labels in the order requested
Data returned: 3, 1, 2
